# Assay name: Safety tests in the same way as in Example 1 (acute toxicity, skin irritation, skin sensitization)
# Type: in vivo
# Condition info: tested in the same way as in Example 1
Measure: safety with respect to skin irritation, etc.

compound=NC(=O)c1ccc[n+]([C@@H]2O[C@H](COP(=O)([O-])OP(=O)(O)OC[C@H]3O[C@@H](n4cnc5c(N)ncnc54)[C@H](OP(=O)(O)O)[C@@H]3O)[C@@H](O)[C@H]2O)c1 assay_result="no problem was observed"
compound="NC(=O)c1ccc[n+]([C@@H]2O[C@H](COP(=O)([O-])OP(=O)(O)OC[C@H]3O[C@@H](n4cnc5c(N)ncnc54)[C@H](O)[C@@H]3O)[C@@H](O)[C@H]2O)c1 [NAD Na, β-nicotinamide adenine dinucleotide]" assay_result="no problem was observed"
compound="Cc1cc2nc3c(=O)[nH]c(=O)nc-3n(C[C@H](O)[C@H](O)[C@H](O)COP(=O)(O)OP(=O)(O)OC[C@H]3O[C@@H](n4cnc5c(N)ncnc54)[C@H](O)[C@@H]3O)c2cc1C [FAD 2Na, Flavin adenine dinucleotide]" assay_result="no problem was observed"
